biological target: T1, recombinant LILRB1 (human, UniProt Q8NHL6 24-461); assay: BLI (Octet RED96), antibody on biosensor, recombinant LILRB1 in solution;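 also: Background-subtracted sensorgrams fitted with a one-to-one binding model, KD taken as koff over kon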
T1 construct: LILRB1-Fc proteins were also made; also called LILRB1 recombinant proteins
T1 sequence (Q8NHL6 24-461 limits assumed): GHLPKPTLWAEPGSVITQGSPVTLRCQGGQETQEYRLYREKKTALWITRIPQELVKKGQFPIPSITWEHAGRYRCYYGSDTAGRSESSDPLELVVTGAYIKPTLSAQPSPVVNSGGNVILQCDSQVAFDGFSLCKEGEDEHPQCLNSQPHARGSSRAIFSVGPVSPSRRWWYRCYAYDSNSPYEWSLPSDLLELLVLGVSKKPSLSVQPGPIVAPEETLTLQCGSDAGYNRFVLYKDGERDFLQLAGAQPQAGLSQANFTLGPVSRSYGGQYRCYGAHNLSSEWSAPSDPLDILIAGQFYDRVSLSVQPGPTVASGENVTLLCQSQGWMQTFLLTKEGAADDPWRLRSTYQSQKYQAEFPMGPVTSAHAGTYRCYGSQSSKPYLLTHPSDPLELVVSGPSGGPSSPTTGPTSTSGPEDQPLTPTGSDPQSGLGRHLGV
// kon lookup, one value per entry
MEASURED_PROPERTY: kon (M⁻¹ s⁻¹)

[
  {
    "BINDER": "B1-#22 (antibody, V domains shown, recombinant rabbit IgG) VH: EQSLEESGGGLVKPGASLTLTCKASGFDFSSNDYMCWVRQAPGKGLEWIGCIYGGDGHTYYATWAKGRFTISKASSTTVTLQMTSLTAADTASYFCARGYSYGDTGYADAILTLDLWGPGTLVTVSS VL: ELDLTQTPASVEAAVGGTVTIKCQASQTIGSYLSWYQQKPGQRPKLLIYEASKLASGVPSWFKGSGSGTEFTLTISDLECADAATYYCQSNYYRAGGNYGGAFGGGTEVEIK",
    "ASSAY_VALUE": 141000
  },
  {
    "BINDER": "B1-#3 (antibody, V domains shown, recombinant rabbit IgG) VH: QSLEESEGDLVKPEGSLTLTCKASGFDFSSDAMCWVRQAPGKGLEWIGCIYNGDEITDHASWAKGRFTISKTSPTTVTLQMTSLTVADTATYFCARAVYSDGGAGYPYMYGMDLWGPGTLVTVSS VL: ELDMTQTPASVEAAVGGTVTIKCQASQNIYSYLVWYQQKPGQPPKLLISKASTLASGVSSRFKGSGSGTEFTLTINDLECADAATYYCQTNYFSSTSHFGVFTFGGGTELEIK",
    "ASSAY_VALUE": 112000
  }
]

Reference source for all entries: patent US12723078
